- Test system: Escherichia coli BW25113
- protocol-text: plate-normalized OD600 growth (mean of duplicates) (OD600 (normalized)); higher = more growth (less inhibition)
- experimental-setup: temperature: 37°C; 24 h; 10 µM
The full ranking holds about 2,300 compounds; the median of “plate-normalized OD600 growth (mean of duplicates)” is about 0.29, and the lowest 2% start at about 0.22. The full list was thinned out, with the lowest values kept by preference.

- compound: "CC12CCC(C1)C(C)(C)C2NC(=O)c1cccs1 (stereo unspecified)"
  plate-normalized OD600 growth: 0.639
- compound: "COc1cc(C(=S)N2CCCCC2)ccc1OC(=O)c1ccccc1"
  plate-normalized OD600 growth: 0.606
- compound: "Cc1sc(NC(=O)c2cc3ccccc3oc2=O)nc1-c1ccc(-c2ccccc2)cc1"
  plate-normalized OD600 growth: 0.625
- compound: "Cc1cc(NC(=NS(=O)(=O)c2ccc(Br)cc2)c2ccccc2)cc(C)c1O"
  plate-normalized OD600 growth: 0.652
- compound: "O=C(c1ccco1)N1CCC(c2ccccc2)C1 (stereo unspecified)"
  plate-normalized OD600 growth: 0.642
- compound: "CCC/C=N/NC(=O)c1ccc(N2CCCC2=O)cc1"
  plate-normalized OD600 growth: 0.647
- compound: "Cc1cccc(C2(c3cccc(C)c3)CC2C(=O)Nc2ccc(C#N)cc2)c1 (stereo unspecified)"
  plate-normalized OD600 growth: 0.597
- compound: "O=C(NCCSC1CCCCC1)c1ccco1"
  plate-normalized OD600 growth: 0.633
- compound: "Cc1ccc(S(=O)(=O)N=C(Nc2ccc(O)c(Cl)c2)c2ccccc2)cc1"
  plate-normalized OD600 growth: 0.618
- compound: "Cc1ccc(N2CC(=O)N(/N=C/c3ccc(F)cc3)C2=S)cc1"
  plate-normalized OD600 growth: 0.63
- compound: "COc1ccc(C(=O)N2CCN(c3c(C)cccc3C)CC2)cc1OC"
  plate-normalized OD600 growth: 0.622
